Recorded values, source patent US6605722B2.

# PROTOCOL SUMMARY: Acute toxicity (LD50) in mice
# Type: in vivo
# COND: mouse, in vivo, iv
READOUT LABEL: LD50

## Input Param item = O=C(NC(Cc1ccc(OCc2ccc3ccc(F)cc3n2)cc1)C(=O)O)c1ccc2ccccc2n1 (racemic) [Compound 17] ; retrieve measured LD50.
## Output > 50 mg/kg

====

Sequence of the target: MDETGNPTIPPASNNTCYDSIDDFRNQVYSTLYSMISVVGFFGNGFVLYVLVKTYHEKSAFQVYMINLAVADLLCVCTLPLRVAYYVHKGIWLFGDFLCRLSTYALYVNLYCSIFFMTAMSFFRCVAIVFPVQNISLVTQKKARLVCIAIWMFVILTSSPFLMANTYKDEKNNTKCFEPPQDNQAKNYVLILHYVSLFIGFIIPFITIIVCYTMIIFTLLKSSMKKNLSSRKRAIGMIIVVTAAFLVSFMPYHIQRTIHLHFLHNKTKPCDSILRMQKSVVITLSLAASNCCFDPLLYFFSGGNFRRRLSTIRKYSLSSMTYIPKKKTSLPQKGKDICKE
Give measured log10(IC50) for each item. Keep answers brief.
Hello, just confirming the data are log10 of IC50 with units of nM.

## Input Param item = O=C(NC(Cc1ccc(OCc2ccc3ccccc3n2)cc1)C(=O)O)c1nccc2ccccc12 (stereo not shown) ; retrieve measured log10(IC50).
## Output 1.81

## Input Param item = O=C(NC(Cc1ccc(OCc2ccc3ccccc3n2)cc1)C(=O)O)c1ccc(Cl)cc1 (stereo not shown) ; retrieve measured log10(IC50).
## Output 1.99

## Input Param item = O=C(NC(Cc1ccc(OCc2ccc3ccccc3n2)cc1)C(=O)O)c1cc2ccccc2cn1 (stereo not shown) ; retrieve measured log10(IC50).
## Output 0.99

## Input Param item = O=C(NC(Cc1ccc(OCc2ccc3ccccc3n2)cc1)C(=O)O)c1ccccc1-c1ccccc1 (stereo not shown) ; retrieve measured log10(IC50).
## Output 2.26

## Input Param item = Cn1cc(C(=O)NC(Cc2ccc(OCc3ccc4ccccc4n3)cc2)C(=O)O)c2ccccc21 (stereo not shown) ; retrieve measured log10(IC50).
## Output 1.71

## Input Param item = O=C(NC(Cc1ccc(OCc2ccc3ccccc3n2)cc1)C(=O)O)c1ccc(-c2ccccc2)cn1 (stereo not shown) ; retrieve measured log10(IC50).
## Output 1.38

## Input Param item = `O=C(N[C@H](Cc1ccc(OCc2ccc3ccc(F)cc3n2)cc1)C(=O)O)c1ccc2ccccc2n1` ; retrieve measured log10(IC50).
## Output 1.09

## Input Param item = O=C(NC(Cc1ccc(OCc2ccc3ccccc3n2)cc1)C(=O)O)c1ccccc1 (stereo not shown) ; retrieve measured log10(IC50).
## Output 2.28

## Input Param item = O=C(NC(Cc1ccc(OCc2ccc3ccc(F)cc3n2)cc1)C(=O)O)c1ccc2ccccc2n1 (racemic) ; retrieve measured log10(IC50).
## Output 0.90

## Input Param item = Cc1ccc2ccc(COc3ccc(CC(NC(=O)c4ccc5ccccc5n4)C(=O)O)cc3)nc2c1 (stereo not shown) ; retrieve measured log10(IC50).
## Output 1.05

====

READOUT LABEL: melting point (°C)
Give the value, in units of °C, as a plain number.

## Input Param item = Cc1ccc2ccc(COc3ccc(CC(NC(=O)c4ccc5ccccc5n4)C(=O)O)cc3)nc2c1 (centres unmarked) ; retrieve measured melting point.
## Output 214

## Input Param item = O=C(NC(Cc1ccc(OCc2ccc3ccccc3n2)cc1)C(=O)O)c1cnnc2ccccc12 (centres unmarked) ; retrieve measured melting point.
## Output 232

## Input Param item = O=C(NC(Cc1ccc(OCc2ccc3ccccc3n2)cc1)C(=O)O)c1ccnc2ccccc12 (centres unmarked) ; retrieve measured melting point.
## Output 224

## Input Param item = O=C(NC(Cc1ccc(OCc2ccc3ccccc3n2)cc1)C(=O)O)c1ccc2ccccc2c1 (centres unmarked) ; retrieve measured melting point.
## Output 196

## Input Param item = O=C(NC(Cc1ccc(OCc2ccc3ccccc3n2)cc1)C(=O)O)c1ccccn1 (centres unmarked) ; retrieve measured melting point.
## Output 171

## Input Param item = O=C(NC(Cc1ccc(OCc2ccc3ccccc3n2)cc1)C(=O)O)c1cnc2ccccc2c1 (centres unmarked) ; retrieve measured melting point.
## Output 230

## Input Param item = O=C(NC(Cc1ccc(OCc2ccc3ccccc3n2)cc1)C(=O)O)c1ccc2ncccc2c1 (centres unmarked) ; retrieve measured melting point.
## Output 248
